# measuredTarget: Albumin (Bos taurus) (UniProt P02769)
# Sequence (P02769 whole entry, looked up): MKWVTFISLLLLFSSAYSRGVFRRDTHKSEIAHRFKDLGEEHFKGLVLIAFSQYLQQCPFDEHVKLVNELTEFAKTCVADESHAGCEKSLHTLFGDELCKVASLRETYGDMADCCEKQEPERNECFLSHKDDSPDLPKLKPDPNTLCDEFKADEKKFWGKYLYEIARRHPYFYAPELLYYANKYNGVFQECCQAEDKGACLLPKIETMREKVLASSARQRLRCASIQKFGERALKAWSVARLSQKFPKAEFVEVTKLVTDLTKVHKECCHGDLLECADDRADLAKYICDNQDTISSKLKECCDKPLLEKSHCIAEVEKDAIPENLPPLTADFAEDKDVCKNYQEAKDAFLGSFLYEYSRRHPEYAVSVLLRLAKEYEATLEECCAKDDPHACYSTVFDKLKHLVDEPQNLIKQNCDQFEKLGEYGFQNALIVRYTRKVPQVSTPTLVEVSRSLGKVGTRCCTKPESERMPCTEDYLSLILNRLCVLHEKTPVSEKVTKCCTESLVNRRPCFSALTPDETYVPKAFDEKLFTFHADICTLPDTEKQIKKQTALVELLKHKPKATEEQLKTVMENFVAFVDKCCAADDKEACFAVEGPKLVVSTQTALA
# testName: bovine serum albumin binders on microarray, profiling panel, artefact control for SMM control protein annotation, biochemical, small-molecule microarray, Alexa647 label, 635/667 nm fluorescence (AID 1118);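 further: score merges 667 nm emission intensity and signal-to-noise per printed compound spot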
# recordedConditions: BSA-A647 binding, fluorescence 635 nm, higher = more signal
Can you tell me composite z-score for the items I'm about to list?
Numbers only.

Below are worked cases with known answers.
INSERT INTO results (compound, number) VALUES
  ('CCOC(=O)C[C@H]1[C@H](OC(=O)c2ccc(C(=O)c3ccccc3)cc2)[C@@H](NC(=O)C2CCCCC2)c2cc(OCCCO)ccc2N1C(=O)c1ccccc1', 0.473),
  ('C=CCNC(=O)[C@@H]1[C@H]2C(=O)O[C@H](c3ccccc3)[C@H](c3ccccc3)N2[C@H](c2ccc(O)cc2)[C@@]12C(=O)N(C(=O)OCCOC)c1ccccc12', 0.752),
  ('COc1ccccc1CN1C(=O)c2ccccc2[C@@H](C(=O)NCCN2CCOCC2)[C@@H]1c1ccc(CO)cc1', 0.305);

Consider now this further compound.
Which measured composite z-score belongs to CN1C(=O)C2C(C1=O)C1C=C(CCCO)C2C(c2cccs2)N1C (centres undefined) , tested on Albumin (Bos taurus) (UniProt P02769)?
0.565
